# TESTED TARGET: MAGL (Mus musculus, UniProt O35678)
# Sequence (O35678 whole entry): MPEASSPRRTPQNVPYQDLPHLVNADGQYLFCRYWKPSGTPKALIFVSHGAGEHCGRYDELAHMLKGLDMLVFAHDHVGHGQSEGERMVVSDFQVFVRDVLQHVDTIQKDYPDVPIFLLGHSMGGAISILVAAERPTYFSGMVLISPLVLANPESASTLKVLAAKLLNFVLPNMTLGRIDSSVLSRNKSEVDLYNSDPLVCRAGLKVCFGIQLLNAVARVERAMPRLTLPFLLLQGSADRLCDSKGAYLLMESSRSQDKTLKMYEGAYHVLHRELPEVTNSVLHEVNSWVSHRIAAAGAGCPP
# ASSAY INFO: Mouse brain proteomes from inhibitor treated mice (oral gavage, sacrificed 4 h after administration)
# Format: in vivo
# Set-up: mouse brain membrane fraction for mouse assays; from tissue; host or cells: mouse brain (membrane fraction in vitro; brain proteomes of treated C57Bl/6J mice in vivo)
# COND: 5 mg/kg oral gavage, C57Bl/6J mice, brain proteome 4 h after administration, read-out: MAGL % inh. 5 mg/kg (mouse)
VALUE TYPE: inhibition at 5 mg/kg

- COMPOUND: "O=C(O)c1ccn(C(=O)N2CCC3(CCCN3Cc3ccc(C(F)(F)F)cc3N3CCCCC3)CC2)n1 [Example 404]"
  RESULT: "0 to 25%"
- COMPOUND: "O=C(O)c1ccn(C(=O)N2CCN(Cc3cccc(C(F)(F)F)c3N3CCOCC3)CC2)n1 [Example 453]"
  RESULT: "0 to 25%"
- COMPOUND: "CN(Cc1ccc(C(F)(F)F)cc1N1CCCC1)C1(C)CCN(C(=O)n2ccc(C(=O)O)n2)CC1 [Example 456]"
  RESULT: "0 to 25%"
- COMPOUND: "O=C(O)c1ccn(C(=O)N2CCC3(CCCN3C(=O)c3ccc(C(F)(F)F)cc3N3CCCC3)CC2)n1 [Example 403]"
  RESULT: "0 to 25%"
- COMPOUND: "C[C@H]1CN(Cc2ccc(C(F)(F)F)cc2N2C3CCC2COC3)CCN1C(=O)n1ccc(C(=O)O)n1 [Example 395]"
  RESULT: "0 to 25%"
- COMPOUND: "CNC(=O)c1ccn(C(=O)N2CC3CN(Cc4ccc(Cl)cc4)CC3C2)n1 (stereo not drawn) [Example 424]"
  RESULT: "> 75%"
- COMPOUND: "NC(=O)c1ccn(C(=O)N2CCC3(CCN(Cc4cc(Cl)cc(C(F)(F)F)c4)C3)C2)n1 (stereo not drawn) [Example 433]"
  RESULT: "> 75%"
- COMPOUND: "NC(=O)c1ccn(C(=O)N2CCC3(CCN(Cc4cc(Cl)ccc4Cl)C3)C2)n1 (stereo not drawn) [Example 426]"
  RESULT: "> 75%"
- COMPOUND: "O=C(O)c1ccn(C(=O)N2CCN(Cc3ccc(C(F)(F)F)c(N4CC5COCC5C4)c3)CC2)n1 (stereo not drawn) [Example 454]"
  RESULT: "0 to 25%"
- COMPOUND: "CC(C)(O)COc1cccc(O[C@H]2C[C@@H]3CN(C(=O)n4ccc(C(=O)O)n4)C[C@@H]3C2)c1Cl [Example 451]"
  RESULT: "0 to 25%"
- COMPOUND: "CN(Cc1ccc(C(F)(F)F)cc1N1CCCCC1)C1(C)CCN(C(=O)n2ccc(C(=O)O)n2)CC1 [Example 397]"
  RESULT: "0 to 25%"
- COMPOUND: "O=C(O)c1ccn(C(=O)N2CCC3(CCCN3Cc3ccc(C(F)(F)F)cc3N3CCC(F)CC3)CC2)n1 [Example 413]"
  RESULT: "0 to 25%"

* * *

Measured inhibition at 1 µM, listed per entry.
# TESTED TARGET: MAGL (Mus musculus, UniProt O35678)
# ASSAY INFO: In vitro competitive activity-based protein profiling, MAGL, mouse
# COND: read-out: MAGL % inh. 1 μM (mouse)

- COMPOUND: "O=C(O)c1ccn(C(=O)N2CCN(Cc3ccc(C(F)(F)F)cc3N3CCCCC3)CC2)n1"
  inhibition at 1 µM: "> 75%"
- COMPOUND: "O=C(O)c1ccn(C(=O)N2CCN(Cc3cccc(Oc4cccnn4)c3)CC2)n1"
  inhibition at 1 µM: "0 to 25%"
- COMPOUND: "C[C@H]1CN(Cc2cccc(OCC(C)(C)O)c2Cl)CCN1C(=O)n1ccc(C(N)=O)n1"
  inhibition at 1 µM: "> 75%"
- COMPOUND: "NC(=O)c1ccn(C(=O)N2CC3CN(Cc4cccc(C(F)(F)F)c4)CC3C2)n1 (centres unmarked)"
  inhibition at 1 µM: "> 75%"
- COMPOUND: "C[C@@H]1CC[C@@H](C)N1c1cc(C(F)(F)F)ccc1CN1CCN(C(=O)n2ccc(C(=O)O)n2)CC1"
  inhibition at 1 µM: "> 75%"
- COMPOUND: "O=C(O)c1ccn(C(=O)N2CCC3(CCN(Cc4cccc(C(F)(F)F)c4)CC3)C2)n1"
  inhibition at 1 µM: "0 to 25%"
- COMPOUND: "O=C(O)c1ccn(C(=O)N2C[C@H]3C[C@H](Oc4cccc(N5CCCC5)c4)C[C@H]3C2)n1"
  inhibition at 1 µM: "> 75%"
- COMPOUND: "O=C(O)c1ccn(C(=O)N2CC3CN(Cc4cccc(Oc5ccc(Cl)cc5)c4)CC3C2)n1 (centres unmarked)"
  inhibition at 1 µM: "> 75%"

* * *

Measured inhibition at 5 mg/kg, listed per entry.
# TESTED TARGET: MAGL (Mus musculus)
# ASSAY INFO: Mouse brain proteomes from inhibitor treated mice (oral gavage, sacrificed 4 h after administration)
# Format: in vivo
# Set-up: mouse brain membrane fraction for mouse assays; from tissue; host or cells: mouse brain (membrane fraction in vitro; brain proteomes of treated C57Bl/6J mice in vivo)
# COND: 5 mg/kg oral gavage, brain proteome 4 h after administration, read-out: MAGL % inh. 5 mg/kg (mouse)
VALUE TYPE: inhibition at 5 mg/kg

- COMPOUND: "O=C(O)c1ccn(C(=O)N2CC3CN(Cc4cccc(Oc5ccc(Cl)cc5)c4)CC3C2)n1 (stereo not shown)"
  VALUE TYPE: "inhibition at 5 mg/kg"
  RESULT: "0 to 25%"
- COMPOUND: "Cc1cn(C(=O)N2C[C@H]3C[C@H](OCc4cc(F)cc(Cl)c4)C[C@H]3C2)nc1C(=O)O"
  VALUE TYPE: "inhibition at 5 mg/kg"
  RESULT: "0 to 25%"
- COMPOUND: "C[C@@H]1C[C@@H](N(C)Cc2cccc(C(F)(F)F)c2)CCN1C(=O)n1ccc(C(N)=O)n1"
  VALUE TYPE: "inhibition at 5 mg/kg"
  RESULT: "> 75%"
- COMPOUND: "C[C@H]1CN(Cc2cc(F)cc(Oc3ccc(Cl)cc3)c2)CCN1C(=O)n1ccc(C(=O)O)n1"
  VALUE TYPE: "inhibition at 5 mg/kg"
  RESULT: "0 to 25%"

* * *

# TESTED TARGET: FAAH (Homo sapiens, UniProt O00519)
# Sequence (O00519 1-579): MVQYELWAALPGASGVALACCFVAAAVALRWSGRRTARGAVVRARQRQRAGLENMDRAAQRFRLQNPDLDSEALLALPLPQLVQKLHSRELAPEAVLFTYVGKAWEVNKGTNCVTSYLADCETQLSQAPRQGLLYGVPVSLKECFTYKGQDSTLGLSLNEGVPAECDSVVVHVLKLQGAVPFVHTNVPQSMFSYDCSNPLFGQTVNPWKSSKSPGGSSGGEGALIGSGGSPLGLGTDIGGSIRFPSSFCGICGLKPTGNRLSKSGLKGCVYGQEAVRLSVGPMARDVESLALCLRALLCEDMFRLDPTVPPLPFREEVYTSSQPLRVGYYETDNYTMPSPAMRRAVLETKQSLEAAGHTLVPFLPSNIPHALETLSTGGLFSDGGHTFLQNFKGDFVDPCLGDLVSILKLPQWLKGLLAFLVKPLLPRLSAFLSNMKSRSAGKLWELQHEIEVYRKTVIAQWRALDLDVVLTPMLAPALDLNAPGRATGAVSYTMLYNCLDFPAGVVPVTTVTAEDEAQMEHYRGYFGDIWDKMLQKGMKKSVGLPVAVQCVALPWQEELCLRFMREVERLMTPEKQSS
# ASSAY INFO: In vitro competitive activity-based protein profiling, FAAH, human
# COND: read-out: FAAH % inh. 1 μM (human)

- MOLECULE: "O=C(O)c1ccn(C(=O)N2CCN(Cc3cccc(C(F)(F)F)c3N3CCCC3)CC2)n1 [Example 90]"
  inhibition at 1 µM: "0 to 25%"
- MOLECULE: "C[C@@H]1CC[C@H](C)N1c1cc(C(F)(F)F)ccc1CN(C)C1(C)CCN(C(=O)n2ccc(C(=O)O)n2)CC1 [Example 160]"
  inhibition at 1 µM: "0 to 25%"
- MOLECULE: "O=C(O)c1ccn(C(=O)N2CCC(Oc3ccc(Cl)c(N4CCCC4)c3)CC2)n1 [Example 121]"
  inhibition at 1 µM: "0 to 25%"
- MOLECULE: "O=C(O)c1ccn(C(=O)N2CCN(Cc3cccc(Oc4cccc(Cl)c4)c3)CC2)n1 [Example 84]"
  inhibition at 1 µM: "0 to 25%"
- MOLECULE: "O=C(O)c1ccn(C(=O)N2CCN(Cc3cccc(-c4ncccn4)c3)CC2)n1 [Example 64]"
  inhibition at 1 µM: "0 to 25%"
- MOLECULE: "O=C(O)c1ccn(C(=O)N2C[C@H]3C[C@@H](OCc4cc(F)cc(Cl)c4)C[C@H]3C2)n1 [Example 193]"
  inhibition at 1 µM: "> 75%"
- MOLECULE: "O=C(O)c1nn(C(=O)N2CC3CN(Cc4cccc(Oc5ccc(Cl)cc5)c4)CC3C2)cc1Cl (stereo not shown) [Example 137]"
  inhibition at 1 µM: "> 75%"
- MOLECULE: "O=C(O)c1ccn(C(=O)N2CC3CN(Cc4cccc(OC(F)(F)F)c4)CC3C2)n1 (stereo not shown) [Example 117]"
  inhibition at 1 µM: "0 to 25%"
- MOLECULE: "Cc1c(CN2CCN(C(=O)n3ccc(C(=O)O)n3)CC2)[nH]c2ccc(Cl)cc12 [Example 188]"
  inhibition at 1 µM: "0 to 25%"
- MOLECULE: "O=C(O)c1nn(C(=O)N2CC3CN(Cc4ccc(N5CCCC5)cc4C(F)(F)F)CC3C2)cc1Cl (stereo not shown) [Example 140]"
  inhibition at 1 µM: "50 to 75%"
- MOLECULE: "O=C(O)c1ccn(C(=O)N2CCN(Cc3ccc(C(F)(F)F)c(-c4nnco4)c3)CC2)n1 [Example 9]"
  inhibition at 1 µM: "0 to 25%"
- MOLECULE: "O=C(O)c1ccn(C(=O)N2C[C@H]3C[C@@H](Oc4cccc(-c5ccccc5)c4)C[C@H]3C2)n1 [Example 164]"
  inhibition at 1 µM: "> 75%"
- MOLECULE: "O=C(O)c1ccn(C(=O)N2CCN(Cc3ccc(Cl)cc3N3CC4COCC4C3)CC2)n1 (stereo not shown) [Example 111]"
  inhibition at 1 µM: "0 to 25%"
- MOLECULE: "CN(Cc1ccccc1Cl)[C@H]1C[C@@H]2CN(C(=O)n3cc(Cl)c(C(N)=O)n3)C[C@@H]2C1 [Example 128]"
  inhibition at 1 µM: "> 75%"
- MOLECULE: "O=C(O)c1ccn(C(=O)N2CCN(Cc3cccc(Cl)c3N3CC4COCC4C3)CC2)n1 (stereo not shown) [Example 211]"
  inhibition at 1 µM: "0 to 25%"
- MOLECULE: "Cc1cc(-c2ccccc2)ccc1CN1CCN(C(=O)n2ccc(C(=O)O)n2)C(C)C1 (stereo not shown) [Example 89]"
  inhibition at 1 µM: "> 75%"
